Provenance of the data: patent US20210317204A1

Target: T1, human ROR1 extracellular domain-Fc fusion (human, UniProt Q01973 30-406)
T1 construct: extracellular domain; also called hROR1; ROR1-hFc
Assay: SPR
I'd appreciate it if you could supply Kd values for the items below.
Quick note: give the figure in nM, leave out the unit.

Exercise: Reported Kd, binder P3A1-[G4S]5-P3A1 homodimer with His6Myc tag (VNAR, genetic fusion of two VNAR domains; also called P3A1 dimer 6xHis myc; P3A1-P3A1) TRVDQTPRTATKETGESLTINCVLTDTSYGLYSTSWFRKNPGTTDWERMSIGGRYVESVNKGAKSFSLRIKDLTVADSATYYCKAREARHPWLRQWYDGAGTVLTVNGGGGSGGGGSGGGGSGGGGSGGGGSTRVDQTPRTATKETGESLTINCVLTDTSYGLYSTSWFRKNPGTTDWERMSIGGRYVESVNKGAKSFSLRIKDLTVADSATYYCKAREARHPWLRQWYDGAGTVLTVNQASGAHHHHHHGAEFEQKLISEEDL : ____
Solution: 0.35

Exercise: Reported Kd, binder P3A1 VNAR with His6Myc tag (VNAR, shark VNAR domain; also called P3A1 6xHis myc) VNAR: TRVDQTPRTATKETGESLTINCVLTDTSYGLYSTSWFRKNPGTTDWERMSIGGRYVESVNKGAKSFSLRIKDLTVADSATYYCKAREARHPWLRQWYDGAGTVLTVNQ : ____
Solution: 25.6

Exercise: Reported Kd, binder P3A1 dimer without tag (VNAR, also called P3A1 dimer No tag) TRVDQTPRTATKETGESLTINCVLTDTSYGLYSTSWFRKNPGTTDWERMSIGGRYVESVNKGAKSFSLRIKDLTVADSATYYCKAREARHPWLRQWYDGAGTVLTVNGGGGSGGGGSGGGGSGGGGSGGGGSTRVDQTPRTATKETGESLTINCVLTDTSYGLYSTSWFRKNPGTTDWERMSIGGRYVESVNKGAKSFSLRIKDLTVADSATYYCKAREARHPWLRQWYDGAGTVLTVN : ____
Solution: 0.36

Exercise: Reported Kd, binder P3A1 VNAR with 6xHis tag (VNAR, not shown: small tags and cut ends, shark VNAR domain; also called P3A1 6xHis) VNAR: TRVDQTPRTATKETGESLTINCVLTDTSYGLYSTSWFRKNPGTTDWERMSIGGRYVESVNKGAKSFSLRIKDLTVADSATYYCKAREARHPWLRQWYDGAGTVLTVN : ____
Solution: 7.8
